system: parental HEK cells; experiment: HEK parental Agonist Counterscreen Assay (non-transfected cells); format: cell-based; settings: HEK Agonist Activity section
API: label(entry) gives 1 if the entry's Lipophilic Efficiency (logP) is strictly smaller than 2; on equality or larger values it gives 0.

Example cases with answers are listed next.
# compound, discrete_label
data = [
    ("COc1cc(C(=O)NNC(=O)CSc2ccc(C)cc2)cc(OC)c1C", 1),
    ("CC(NC(=O)Cn1ncc2ccccc21)c1ccc2c(c1)OCCO2 (stereo not drawn)", 0),
    ("O=C(NCCn1ccc2ccccc21)c1cccc(Cl)c1", 1),
    ("COc1ccc(CCNC(=O)CC(=O)NCCc2ccc(OC)cc2)cc1", 0),
]

Moving on to another compound below.
Query: Strictly below 2: is that where Lipophilic Efficiency (logP) of CCCN1C(=O)CCc2cc(NC(=O)NCCc3ccc(OC)cc3)ccc21 sits?
Response: 1

Origin of the recorded values: patent US20250099420A1
